# System: UO-31 renal
# Assay summary: NCI-60 one-dose screen, 48 h
# Assay setup: 10 µM unless noted
The panel holds about 83,000 compounds, 20% with a hit somewhere; the sample as a whole holds those more often. The source made the active and inactive calls. Rule for the calls: active = growth percent below 10; inactive = the rest.
Answer with one of the outcomes active, inactive

Solved entries:
Molecule | Assigned category
O=C1Nc2cc(Cl)ccc2/C1=C\c1ccc(OCc2ccccc2)cc1 | inactive
FC(F)(F)c1cc(Br)cc(-c2cc(-c3ccc4c(c3)OCCO4)[nH]n2)c1 | inactive
C1=CC(c2nn3c(-c4ccccc4)nnc3s2)=Cc2ccccc2O1 | inactive
Nn1c(=O)n(-c2cccc(C(F)(F)F)c2)c(=O)c2cc(-c3ccc(F)cc3F)ccc21 | active
N#Cc1c(-c2ccc(F)cc2)cc(-c2c[nH]c3ccccc23)nc1-c1c[nH]c2ccccc12 | inactive

Inquiry: Could you kindly confirm the outcome this assay logged for `Cc1ccc(-c2cc3nc(C(Cl)Cl)nc(-c4ccc(S(=O)(=O)N(C)C)cc4)n3n2)cc1` ?
Reply text: inactive

Inquiry: Tell me the recorded outcome of this test for `N#Cc1nc(-c2ccccc2)oc1N1CCC(C2(C(F)(F)F)N=N2)CC1` .
Reply text: inactive

Inquiry: Give the logged outcome of this assay for the following molecule: `CCCCc1nc2c(N)nc3ccccc3c2n1Cc1cccc(CN)c1`
Reply text: inactive

Inquiry: # lookup: test call for `Oc1ccc(-c2nc3ccc(/C(=N\N=C\c4ccc(Cl)cc4)c4ccccc4)cc3[nH]2)cc1`
Reply text: inactive

Inquiry: Which result was noted for this molecule in the test: Cc1[nH]c(C(=O)Nc2ccc(C(N)=O)cc2N2CCOC(C)C2)c(Cl)c1Cl (stereo not given)
Reply text: inactive

###

# System: SNB-75 CNS
# Assay summary: NCI-60 one-dose screen, 48 h
# Assay setup: 10 µM unless noted
The panel holds about 83,000 compounds, 20% with a hit somewhere; the sample as a whole holds those more often. Active and inactive are the calls of the source. How the source made its calls: active means growth percent below 10; inactive means the rest.
Could you please pick one outcome from this set? active, inactive

A selection of reference data follows.
Molecule | Assigned category
COc1ccccc1/C=C/C(=O)c1nnn(-c2ccc(F)cc2)c1C | inactive
COc1cc(C(=O)c2cc(C(C)=O)c3ccc(C)cn23)cc(OC)c1OC | active
CN1CCN(c2ccc(Nc3nc(NCCCNS(=O)(=O)c4ccc(C(F)(F)F)cc4)c4sccc4n3)cc2)CC1 | active
O=[N+]([O-])c1ccc(NC(=S)NNC(=S)Nc2ccc(F)cc2)cc1 | inactive
C#CCOc1cccc(-c2nc(N)nc(Nc3ccccc3SSc3ccccc3Nc3nc(N)nc(-c4cccc(OCC#C)c4)n3)n2)c1 | inactive

Inquiry: # lookup: test call for `NC(=O)c1c(NC(=O)c2ccc(C(F)(F)F)cc2)sc2c1CCC(=O)C2`
Reply text: active

Inquiry: Recorded test outcome, item CC[C@]12C=CCN3CC[C@]4(C(=C(C(=O)OC)C1)Nc1cc5c(cc14)[C@@H]1[C@H](O5)[C@@H](O)[C@@]4(CC)CC(C(=O)OC)=C5Nc6cc(O)ccc6[C@@]56CCN1C46)C32 (stereo partly drawn)
Reply text: active

Inquiry: Per the records of this test, what outcome belongs to `CN1CCC[C@]2(C)[C@H]3CC[C@@H]4[C@@H]5[C@H]6OC[C@@]5(CCC6(C)C)CC[C@@]4(C)[C@]3(C)CC[C@H]2C1(C)C` ?
Reply text: inactive

###

# Test system: PC-3 prostate
# Assay summary: NCI-60 one-dose screen, 48 h
# Assay setup: 10 µM unless noted
About 83,000 compounds went through this panel and 20% of them were active in at least one assay; those are over-represented in the sample as a whole. Active and inactive are the calls of the source. Rule for the calls: active = growth percent below 10; inactive = the rest.
Select the matching outcome among t for active, f for inactive

Here are 8 compounds together with their reported answers.
Compound | Target or system | Assigned category
CCN(CC)CCOc1ccc(C(=C(c2ccccc2)C2CCCC2)c2ccc(OCCN(CC)CC)cc2)cc1 | PC-3 prostate | f
COc1ccc2[nH]cc(/C=N/Nc3ccnc4cc(Cl)ccc34)c2c1 | PC-3 prostate | t
Brc1ccc2[nH]cc(-c3nn4cc(-c5nccs5)nc4s3)c2c1 | PC-3 prostate | t
COc1cc2oc(-c3cccc(NC(=O)[C@@H](N)C(C)C)c3)cc(=O)c2c(OC)c1OC | PC-3 prostate | f
CCN(CC)S(=O)(=O)c1ccc(-c2nc(C(Cl)Cl)nc3cc(-c4ccc(F)cc4)nn23)cc1 | PC-3 prostate | f
COc1ccc(C2CC(c3cccc(OCCCCOc4cccc(C5=NN(C(C)=O)C(c6ccc(OC)cc6)C5)c4)c3)=NN2C(C)=O)cc1 (stereo unspecified) | PC-3 prostate | f
CCN(CC)c1ccc(/C=N/NC(=O)c2ccc(NS(C)(=O)=O)cc2)cc1 | PC-3 prostate | f
COc1ccccc1Cn1cc(C#N)c(N)c1C(=O)c1ccc(Br)cc1 | PC-3 prostate | f

Please find the next compound below.
Inquiry: How did this test come out for `C#C[C@]1(O)CC[C@H]2[C@@H]3CC=C4c5sc(Nc6cccc(F)c6)nc5CC[C@]4(C)[C@H]3CC[C@@]21C` ?
Reply text: f

###

# System: A498 renal
# Assay summary: NCI-60 one-dose screen, 48 h
# Assay setup: 10 µM unless noted
About 83,000 compounds went through this panel and 20% of them were active in at least one assay; those are over-represented in the sample as a whole. Calls of active or inactive are those of the source. Rule for the calls: active = growth percent below 10; inactive = the rest.
Log the outcome using a class from TRUE = active, FALSE = inactive

Given smiles | Assigned category
C=C(C)[C@@H]1CC[C@]2(C(=O)O)CC[C@]3(C)[C@H](CC[C@@H]4[C@@]5(C)C/C(=C/c6ccccn6)C(=O)C(C)(C)[C@@H]5CC[C@]43C)[C@@H]12 | FALSE

Inquiry: For `COc1ccc(NC(=O)CCCCCCNC(=O)C(O)(O)C(F)(F)F)cc1` , what call appears in the results of this test?
Reply text: FALSE

Inquiry: Please share the test call associated with `N#Cc1c(-c2cccs2)cc(-c2cnccn2)nc1SCC(=O)N/N=C/c1ccncc1` .
Reply text: FALSE

Inquiry: // param item: `CN1CCN(Cc2ccc(NC(=O)c3cncc(C#Cc4cnc5ccc(OCC6COC6)nn45)c3)cc2C(F)(F)F)CC1` ; yields the recorded call
Reply text: TRUE

Inquiry: Entry `COc1cc(-c2nc(-c3ccccc3)[nH]c2-c2ccnc(NCCCNS(=O)(=O)c3cccc(F)c3)n2)ccc1F` : call = ?
Reply text: FALSE

###

# System: OVCAR-3 ovarian
# Assay summary: NCI-60 one-dose screen, 48 h (100 = growth as untreated, 0 = no growth, -100 = all killed)
# Assay setup: 10 µM unless noted
This is part of a sample that, as a whole, favours compounds with a hit. Of some 83,000 tested, about 20% had one in any assay.
Lab note: anything with growth at or over 60% counts as rule met; the rest go in rule not met.

Compound | Assigned category
COC(=O)c1ccc(NC2=C(Cl)C(=O)c3nc(C)ccc3C2=O)cc1 | rule met
CC(C)(C)Nc1nc2c(OCCc3ccccc3)cccn2c1-c1ccc([N+](=O)[O-])cc1 | rule not met
Fc1ccc2nc(-c3cnn4cccnc34)sc2c1 | rule met
CC(=O)Nc1cc(N2CCOCC2)c2nc(NC(=O)c3[nH]c(C)c(Cl)c3Cl)sc2c1 | rule met
CNC(=O)c1cc(-c2ccc(NC(=S)Nc3cccc(C(F)(F)F)c3)cc2)nc2cccnc12 | rule met

Inquiry: Reported growth reaches at least 60% for `COc1cc(C(=O)c2cc(C(C)=O)c3ccc(C)cn23)cc(OC)c1OC` ?
Reply text: rule not met

Inquiry: Identify whether the reported growth of the following compound is 60% or greater: COc1ccc(C2CC(c3cccc(OCCCCOc4cccc(C5=NOC(c6ccc(OC)cc6)C5)c4)c3)=NO2)cc1 (centres undefined)
Reply text: rule met

Inquiry: In plain terms: is recorded growth at least 60% for `O=C(CCCCCCNC(=O)C(O)(O)C(F)(F)F)Nc1ccc(Cl)cc1` ?
Reply text: rule not met

Inquiry: Hi, just wondering whether `CN1CCN(c2ccc(Nc3nc(NCCCNS(=O)(=O)c4ccc(C(F)(F)F)cc4)c4sccc4n3)cc2)CC1` shows growth of 60% or higher.
Reply text: rule not met

###

# Tested on: SNB-19 CNS
# Assay summary: NCI-60 one-dose screen, 48 h (100 = growth as untreated, 0 = no growth, -100 = all killed)
# Assay setup: 10 µM unless noted
# Experimental: Growth inhibition of the SNB-19 human tumor cell line is measured as a screen for anti-cancer activity. Cells are grown in 96 well plates and exposed to the test compound for 48 hours. Compounds are tested at a single concentration, which is 10^-5 M for most compounds. The reported endpoint is percent growth (GI% or GIPRCNT), where numbers from 0 - 100% represent growth inhibition, and numbers from -100% - 0 represent cell death. For example, a value of 40 represents 60% growth inhibition. […]
The panel holds about 83,000 compounds, 20% with a hit somewhere; the sample as a whole holds those more often.
Lab note - cut at 90% for growth: YES if strictly below, NO if not.

Given smiles | Assigned category
NC(=O)c1ncn2c(=O)n(CCF)nnc12 | NO

Inquiry: Does this compound meet the criterion growth < 90%? `O=C(CSc1nc2ccccc2c(=O)n1-c1ccc(S(=O)(=O)Nc2ccc(Cl)nn2)cc1)Nc1ccc(S(=O)(=O)Nc2ccc(Cl)nn2)cc1`
Reply text: NO

Inquiry: Answer whether the compound `CCCCCCNC(=O)Oc1ccc(/C(=C(/C)c2ccc(Cl)cc2)c2ccc(OCCN3CCCCCC3)cc2)cc1` has growth strictly less than 90%
Reply text: YES

Inquiry: Answer whether the compound `COc1ccc(-c2cnc(NC(=O)CCCCCCNC(=O)C(O)(O)C(F)(F)F)s2)cc1` has growth strictly less than 90%
Reply text: YES

Inquiry: Please determine if `Cc1csc(/N=C(N)/N=C(\N)c2cccs2)n1` is below 90% in terms of growth.
Reply text: NO

Inquiry: Lab log: compare recorded growth with 90%; is it strictly lower for `O=C(NNc1nc2cc(F)cc(F)c2n2cccc12)c1cccnn1` ?
Reply text: YES

Inquiry: Find out if reported growth for `COc1ccc(C(C)=C(c2ccc(OCCN3CCCCCC3)cc2)c2ccc(OCCN3CCCCCC3)cc2)cc1` is less than 90%
Reply text: YES

Inquiry: Dear colleague, could you confirm whether growth of `CCn1c2ccc(/C=N/N(C)S(=O)(=O)CCN(C)C)cc2c2cc(/C=N/N(C)S(=O)(=O)CCN(C)C)ccc21` falls below 90%? Thanks.
Reply text: YES

Inquiry: Please check: growth for `N#C/C(=N\Nc1ccc(F)cc1)C(=O)Nc1cc(-c2ccccc2)nn1-c1ccccc1` , strictly under 90% or not?
Reply text: YES

Ref: PubChem BioAssay (NCI)
